target: Hsp70-GST (Homo sapiens, UniProt P0DMV8); construct: purchased Signal Chem H34-54G; assay: Microarray-based screen of the focused library against Hsp70-GST (fluorescence, anti-GST DyLight 649); assay type: binding; details: fluorescence intensity on the microarray, mean of four spots, SD between 5% and 10%; PNA-tagged library member
Sequence (P0DMV8 whole entry): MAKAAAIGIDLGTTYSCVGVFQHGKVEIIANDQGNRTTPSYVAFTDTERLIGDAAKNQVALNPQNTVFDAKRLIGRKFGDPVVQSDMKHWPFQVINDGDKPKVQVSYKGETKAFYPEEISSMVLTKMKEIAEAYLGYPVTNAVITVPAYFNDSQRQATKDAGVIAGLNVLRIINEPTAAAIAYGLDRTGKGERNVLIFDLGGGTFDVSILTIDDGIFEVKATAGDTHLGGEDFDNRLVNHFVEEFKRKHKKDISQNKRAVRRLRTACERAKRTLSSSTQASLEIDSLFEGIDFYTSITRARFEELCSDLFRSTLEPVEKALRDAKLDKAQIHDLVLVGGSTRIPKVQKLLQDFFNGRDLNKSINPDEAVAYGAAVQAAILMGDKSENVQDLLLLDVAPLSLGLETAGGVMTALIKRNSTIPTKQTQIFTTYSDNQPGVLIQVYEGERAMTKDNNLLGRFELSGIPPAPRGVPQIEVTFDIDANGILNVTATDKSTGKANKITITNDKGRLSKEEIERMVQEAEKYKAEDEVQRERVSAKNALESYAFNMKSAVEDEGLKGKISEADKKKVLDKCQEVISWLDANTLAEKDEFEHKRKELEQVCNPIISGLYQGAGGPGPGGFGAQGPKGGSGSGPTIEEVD
METRIC_NAME: FU microarray HSP70-GST

>>> result("COc1ccc(C=CC(=O)NCC(NC(=O)c2ccc(NC(=O)COCC(=O)NC(C)COc3c(C)cccc3C)cc2)C(=O)NCCCCC(NC(=O)COCCOCCNC(=O)CCCCC2SCC3NC(=O)NC32)C(N)=O)cc1OC (stereo not shown) [Compound 10a]")
"28 961 FU"
>>> result("Cc1oncc1C(=O)Nc1ccc(O)c(C(=O)NCC(NC(=O)c2ccc(NC(=O)CCC(=O)c3ccc(-c4ccccc4)cc3)cc2)C(=O)NCCCCC(NC(=O)COCCOCCNC(=O)CCCCC2SCC3NC(=O)NC32)C(N)=O)c1 (stereo not shown)")
"28 653 FU"
>>> result("CCC(COC(=O)NCCCCC(NC(=O)CC1=C(C)C(=Cc2ccc([S+](C)[O-])cc2)c2ccc(F)cc21)C(=O)NCCCCC(NC(=O)COCCOCCNC(=O)CCCCC1SCC2NC(=O)NC21)C(N)=O)c1ccccc1 (stereo not shown) [Compound 13a]")
"27 215 FU"
>>> result("NC(=O)C(CCCCNC(=O)C(CNC(=O)c1ccc2[nH]nc(Br)c2c1)NC(=O)c1cccc(NC(=O)CCC(=O)c2ccc(-c3ccccc3)cc2)c1)NC(=O)COCCOCCNC(=O)CCCCC1SCC2NC(=O)NC21 (stereo not shown)")
"29 024 FU"

* * *

molecular target: Hsp90; experiment: SPR affinity measurement, biotinylated compounds immobilized on a streptavidin chip, Hsp90 analyte; conditions: compound immobilized on streptavidin chip, values in parentheses have chi2 > 10
pKd: −log10 of the molar value.
# reported pKd; entries follow
METRIC_NAME: pKd

>>> result("NC(=O)C(CCCCNC(=O)C(CNC(=O)c1ccc2[nH]nc(Br)c2c1)NC(=O)c1cccc(NC(=O)CCC(=O)c2ccc(-c3ccccc3)cc2)c1)NC(=O)COCCOCCNC(=O)CCCCC1SCC2NC(=O)NC21 (centres unmarked)")
7.83
>>> result("CSc1nnc(CCCOC(=O)NCCCCC(NS(=O)(=O)c2ccc(-c3ccccc3)cc2)C(=O)NCCCCC(NC(=O)COCCOCCNC(=O)CCCCC2SCC3NC(=O)NC32)C(N)=O)n1-c1ccc(Cl)cc1Cl (centres unmarked)")
7.73
>>> result("CC(C(=O)Nc1cccc(C(=O)NC(CNC(=O)c2ccc3[nH]nc(Br)c3c2)C(=O)NCCCCC(NC(=O)COCCOCCNC(=O)CCCCC2SCC3NC(=O)NC32)C(N)=O)c1)c1cccc(Oc2ccccc2)c1 (centres unmarked) [Compound 11a]")
8.25
>>> result("CCC(COC(=O)NCCCCC(NC(=O)CC1=C(C)C(=Cc2ccc([S+](C)[O-])cc2)c2ccc(F)cc21)C(=O)NCCCCC(NC(=O)COCCOCCNC(=O)CCCCC1SCC2NC(=O)NC21)C(N)=O)c1ccccc1 (centres unmarked) [Compound 13a]")
7.53
>>> result("Cc1ccc(C(=O)NCC(NC(=O)c2cccc(NS(=O)(=O)c3ccc(Oc4ccccc4)cc3)c2)C(=O)NCCCCC(NC(=O)COCCOCCNC(=O)CCCCC2SCC3NC(=O)NC32)C(N)=O)cc1[N+](=O)[O-] (centres unmarked) [Compound 15a]")
7.45
